# Tested on: gene editing with dCas9
# assay.comment: Screen of 322 new SSAP proteins, gene editing activity with dCas9 (Table 5)
# Assay type: cell-based
# study.conditions: normalized
measured.property: dCas9 with SSAP activity (normalized)

SSAP_247: SEQ ID NO: 416; Ruminococcus sp. CAG: 579 (protein, listed as Ruminococcus sp.) NERTNLQYAPAPVERFKECLNSHEIKARLKNSLKNNWTQFQTSMLDLYSGDAYLQKCDPMAVALECVKAATLDLPISKSLGFAYVVPYNNVPTFTLGYKGLIQLAQRTGQYRTINADVVYEGEIRGADKLSGMVDLSGERTGDEVVGYFAYFKLINGFEKMIYMTRAEAEKWRDDYSPSAKSKYSPWRTDFDKMALKTCIRRLISKYGIMSVEMQGVMTEEAEPRAAAAAKRAEETVQANANSKVIDIDAAPPAANESPAEAAPQPDF : 0.332

Alright, here's another molecule for you.
Lookup: Give the measured dCas9 with SSAP activity (normalized) of SSAP_142: SEQ ID NO: 311; Roseburia intestinalis (protein, listed as Roseburia intestinalis) GDIRSELAKKAEQTQGNTKLTKSMSIADLIKAMEPEIQKALPSVITPERFTRMALSALNTTPKLQECTPMSFLAALMNAAQLGLEPNTPLGQAYLIPYKNKNVLECQFQLGYRGMIDLAYRNGHMQSIEAQAVYENDVFSYALGLHPELVHKPTLEEKGALKAFYAIFRLDNGGFRFEVMGKTYIDWYANRYSKAFTSEFSPWKSNYEGMAKKTVIKQLLKYAPLKTEFQRALSTDETIKNSLNVDMGEVLSEDIIDMPCEEVA .
Found: −1.216
